Molecular target: MS2 coat protein, dlFG mutant (Escherichia phage MS2, UniProt P03612, del68-81insG)
Test: 4 mM Mg2+; no ligand; RNA-MaP array; 100 mM Tris-HCl pH 7.5, 80 mM KCl, 4 mM MgCl2, 0.1 mg/mL BSA, 1 mM DTT, 0.01 mg/mL yeast tRNA, 0.01% Tween-20; protein 1.5 nM to 3 uM; 37 C (Table S3)
Details: chain copies: 2; label: tethered by stalled RNA polymerase
OBSERVABLE: Kd

[in] Return Kd (reported value) for this binder: Eterna 7740407 (Exclusion - Tryptophan A) (ssRNA) RNA: AAGCAGUCACUCGAAACCAUCGAAGAUGGACGAGGACCGGUACGGCCGCCACUCGGAGUGAUGUUCCGAAGACUGCAAAAUAAAA
[out] > 3000 nM

[in] Return Kd (reported value) for this binder: Eterna 1200 (Exclusion - Tryptophan A) (ssRNA) RNA: UGGAGUGCCUGGUCGUCACUAUGCCAACCACGAGGACCGGUACGGCCGCCACUCGUGAGGGAUAUUCAGAAAGUGAUGUUUUUUG
[out] > 3000 nM

[in] Return Kd (reported value) for this binder: Eterna 6395988 (Inverted Same State NG 2) (ssRNA) RNA: GUCUGAUUGUAGAAGGUACUUAAUACUCAUGUAACAUGAGGAUCACCCAUGUAUCAACAAUAUUGUAAGGAUAUACAAAUCUCA
[out] 576 nM

[in] Return Kd (reported value) for this binder: Eterna 6444365 (Inverted Same State NG 3) (ssRNA) RNA: AGAUUUGUACAUGAGGAUCACCCAUGUUAAUAGGUGGUUGUCAGAAGGCAUUAUUAGAGUUUUAAUGAGGAUAUGAAUUUACAA
[out] 974 nM

[in] Return Kd (reported value) for this binder: Eterna 5921244 (Exclusion NG 2) (ssRNA) RNA: AUUAUAUAGGAAGGAUAUAGAAUAUUAUUUUAACAUGAGGAUCACCCAUGUAACCUUAUGUGUAGCUAGAAGGUCCAUUUGUUA
[out] 224 nM

[in] Return Kd (reported value) for this binder: Eterna 7755473 (Exclusion - Arginine A) (ssRNA) RNA: UCCUUUGUUGCCAGUGAUGUUGGACAGGAAGGAGCGGGCAUAAGCCCAGGUAGGUCGCCUGUCAACUUUCUUAUAGCCCGAAGGU
[out] > 3000 nM

[in] Return Kd (reported value) for this binder: Eterna 7690517 (Same State - Theophylline B) (ssRNA) RNA: AAUUUAUUAUCUGAUACCAGACUUUUUCUUGUUUAUAAGUCAAGUGAUGUUUGACUUUUAGUCCCUUGGCAGCAGUAUUUUUUAA
[out] > 3000 nM

[in] Return Kd (reported value) for this binder: Eterna 7745661 (Exclusion - FMN B) (ssRNA) RNA: AGACUACUGAUAGGAUAUAACAUCCUAGUCGUAUACCGAAAGGUAUACGAUUCCCUUCUAGUGAUGUUAGAAGGGUCGGUAGUCA
[out] > 3000 nM
